Molecular target: Vitamin D3 receptor (Homo sapiens) (UniProt P11473)
Sequence (P11473 whole entry, looked up): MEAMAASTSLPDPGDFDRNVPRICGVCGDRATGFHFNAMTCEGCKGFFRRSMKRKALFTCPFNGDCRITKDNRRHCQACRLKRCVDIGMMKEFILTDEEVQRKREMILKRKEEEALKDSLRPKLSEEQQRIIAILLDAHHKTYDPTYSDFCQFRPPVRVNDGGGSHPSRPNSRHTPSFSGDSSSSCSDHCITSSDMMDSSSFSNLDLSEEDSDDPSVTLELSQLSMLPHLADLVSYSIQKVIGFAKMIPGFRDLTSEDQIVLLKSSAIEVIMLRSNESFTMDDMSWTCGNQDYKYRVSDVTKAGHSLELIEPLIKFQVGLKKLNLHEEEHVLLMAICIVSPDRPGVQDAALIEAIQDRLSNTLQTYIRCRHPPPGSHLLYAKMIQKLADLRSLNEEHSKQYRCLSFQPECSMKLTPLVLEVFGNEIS
Assay: qHTS assay for small molecule antagonists of vitamin D receptor signaling (AID 588541)
Details: HEK293T VDR-UAS-bla, beta-lactamase ratio, antagonist mode; series mostly up to 76.7 µM
Records with an inconclusive call do not appear. The source made the active and inactive calls. Calls follow the shape of the full dose curve.
Please answer using one outcome listed in label 1 = active, label 0 = inactive

compound	classification
NCCCCCCCCCCC(=O)O	label 0
CCCCOC(=O)/C=C\C(=O)OCCCC	label 0
CC(C)(C)c1n[nH]c(=O)n(N)c1=O	label 0
C[Si](Cl)(Cl)c1ccccc1	label 0
Cc1ccc2c(c1)C(=O)OC2=O	label 0
CC(C)c1cccc(C(C)C)c1	label 0
OCc1cccc(Oc2ccccc2)c1	label 0
CCCCOCC(C)OCC(C)O (stereo not drawn)	label 0
O=C(c1ccc(Cl)cc1)c1ccc(Cl)cc1	label 0
CCOCCOCCOCCO	label 0

Name the outcome recorded for CCCCC(CC)COP(=O)(O)OCC(CC)CCCC (stereo not drawn) in the assay.
label 0

What do we get for CCOC(=O)CCCCCCCCC(=O)OCC ?
label 0

What do we get for CCC(C)OC(=O)N1CCCCC1CCO (stereo not drawn) ?
label 0

What do we get for CCC/C(=N\OCC)C1=C(O)CC(O)(CC(C)S(=O)(=O)CC)CC1=O (stereo not drawn) ?
label 0

What do we get for Nc1c(N=Nc2ccc(S(=O)(=O)CCOS(=O)(=O)O)cc2)c(S(=O)(=O)O)cc2cc(S(=O)(=O)O)c(N=Nc3ccc(S(=O)(=O)CCOS(=O)(=O)O)cc3)c(O)c12 ?
label 0

What do we get for C=CC(=O)OCCOCC(CC)(COCCOC(=O)C=C)COCCOC(=O)C=C ?
label 1

What do we get for CC(C)Nc1nc(N)nc(Cl)n1 ?
label 0

What do we get for C=C[Si](OCCOC)(OCCOC)OCCOC ?
label 0

What do we get for COc1ccc(OC)c(OC)c1 ?
label 0

What do we get for CCc1cccc(C)c1N(C(=O)CS(=O)(=O)O)[C@@H](C)COC ?
label 0

What do we get for C=C(C)C(=O)OCC[N+](C)(C)C ?
label 0

What do we get for O=C(Nc1ccccc1)c1cc(Cl)ccc1O ?
label 0

What do we get for CC1=CC2C3CC(C=C3C)C2C1 (stereo not drawn) ?
label 0

What do we get for Cl[Si](Cl)(Cl)c1ccccc1 ?
label 0

----------
Experiment: qHTS assay for small molecule agonists of the antioxidant response element (ARE) signaling pathway measured by Nrf2-dependant transcriptional activity - cell viability counter screen (AID 720653); also: % is scaled to controls: 0 for no effect and ±100 for the full control effect
Details: ARE-bla HepG2 viability, CellTiter-Glo ATP luminescence, 16 h; stronger effect = lower value
Inconclusive results are not listed.
The following molecules are listed with their measured max response values.
Write the answer as a number in %, unit excluded.

Example entries and their recorded answers appear below.
molecule	observed measurement
O=C(OCCOCCOC(=O)c1ccccc1)c1ccccc1	-6.77
OCC(CO)(CO)COCC(CO)(CO)CO	3.18
CCCCCCCCCc1ccccc1	4.47
CN(C)c1ccc(C(c2ccccc2)c2ccc(N(C)C)cc2)cc1	-16.8
CCCCCCCC/C=C\CCCCCCCCO	-1.08
O=C(O)C(c1ccc(Cl)cc1)c1ccc(Cl)cc1	-12.1
Fc1ccc(Br)cc1	-9.66
C=C[Si](OCCOC)(OCCOC)OCCOC	15.4
CC(Cl)(Cl)C(=O)OCCOc1cc(Cl)c(Cl)cc1Cl	2.91
CCCCCCOCCOCCO	-7.8

Any idea what its max response is? The molecule is C/C=C/C=C/CCCCCCCO
-8.82

What do we get for CC(C)C(=O)OC(=O)C(C)C ?
-7.37

What do we get for COC(=O)C(C)Oc1ccc(Oc2ncc(C(F)(F)F)cc2Cl)cc1 (stereo not drawn) ?
-10.2

What do we get for O=S(=O)(O)c1cc(S(=O)(=O)O)c2c(N=Nc3ccccc3)c(O)ccc2c1 ?
-9.68

What do we get for COC(OC)(C(=O)c1ccccc1)c1ccccc1 ?
5.37

What do we get for O=C(O)CCCCCCCCCCC(=O)O ?
-6.19

What do we get for CCCCC(CC)COC(C)=O (stereo not drawn) ?
3.74

What do we get for CSC(=O)c1cccc2nnsc12 ?
15.6

What do we get for C=Cc1ccccc1Br ?
-11.1

What do we get for CO[Si](CCCOCC1CO1)(OC)OC (stereo not drawn) ?
-2.05

What do we get for COC(=O)CSc1cc(N=c2sc(=O)n3n2CCCC3)c(F)cc1Cl ?
8.69

What do we get for c1ccc(OCCOc2ccccc2)cc1 ?
-8.94

What do we get for COCCOCCOCCOC ?
1.56

What do we get for C[Si]1(C)N[Si](C)(C)N[Si](C)(C)N1 ?
-8.08

What do we get for CCOC(=O)[C@H](C)Oc1ccc(Oc2nc3ccc(Cl)cc3o2)cc1 ?
0.626

What do we get for CCCCC(CC)CN1C(=O)C2C3C=CC(C3)C2C1=O (stereo not drawn) ?
8.11

What do we get for CCOC(=O)CCCCCCCCC(=O)OCC ?
-13.4

What do we get for CC(=O)Nc1ccc(N=Nc2cc(C)ccc2O)cc1 ?
1.65

What do we get for CCCCOC(=O)c1ccccc1 ?
21.3

What do we get for CC(=O)OC1CCC(C(C)(C)C)CC1 (stereo not drawn) ?
0.584

What do we get for CC(=O)CC(=O)Nc1ccccc1C ?
-6.37

What do we get for C=C(C)C(=O)OCC[N+](C)(C)C ?
1.93

What do we get for CC(C)(C)C(O)/C(=C\c1ccc(Cl)cc1)n1cncn1 (stereo not drawn) ?
-4.78

What do we get for CS(C)=O ?
16.4

What do we get for NCCCCCCCCCCC(=O)O ?
-2.31

What do we get for NCCCCCCCCCCCC(=O)O ?
4.58

What do we get for COC(=O)c1ccccc1C(=O)O ?
-2.33

----------
Assay: qHTS for Inhibitors of Plasmodium falciparum (DD2) proliferation (AID 504314);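 also: parasite DNA measured by SYBR Green fluorescence after red cell lysis; plate controls were DMSO vehicle for no effect and artemisinin wells for full effect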
Conditions: P. falciparum Dd2 in erythrocytes, SYBR Green growth, 72 h; series mostly up to 1.12 µM
From the text: Plasmodium falciparum is a virulent malarial parasite that kills 1-2 million people worldwide each year. […] Because mature erythrocytes lack DNA, only Plasmodium-derived DNA is detected. […] Bennett TN, Paguio, M., Gligorijevic, B., Seudieu, C., Kosar, A. D., Davidson, E., and Roepe, P. D. Novel, rapid, and inexpensive cell-based quantification of antimalarial drug efficacy Antimicrobial Agents Chemother. […]
Results filed as inconclusive are left out. The source made the active and inactive calls. Calls come from the whole dose curve; as a rule, active = well fitted inhibition curve with a large enough effect; inconclusive = small, poorly fitted or top-dose-only effect; inactive = flat fitted curve, though single readings scatter.
Please answer using one outcome listed in 1 (yes) for active, 0 (no) for inactive

Name the outcome recorded for COC/C=C/C1=CC2=CC(=O)C(C)(OC(=O)c3cnc4ccccc4n3)C(=O)C2=CN1Cc1ccco1 (stereo not drawn) in the assay.
0 (no)

What do we get for COc1cccc([C@@H]2Oc3ccc(Br)cc3C(=O)[C@@H]2OC(=O)Nc2cc(OC)c(OC)c(OC)c2)c1 ?
0 (no)

----------
Tested on: PAD
Assay: qHTS profiling for inhibitors of Plasmodium falciparum proliferation (AID 504749); also: nearly all actives have a fitted effect of over 60% in size
Conditions: P. falciparum in erythrocytes, SYBR Green DNA, 72 h; series mostly up to 28.7 µM
Results filed as inconclusive are left out. The source made the active and inactive calls. Calls follow the shape of the dose curve; as a rule, active = well fitted inhibition curve with a large enough effect; inconclusive = small, poorly fitted or top-dose-only effect; inactive = flat fitted curve, though single readings scatter. Numbered stars: 1 amine (or outer) side, 2 acyl side, 3 side chain; on linkers, the order of the positions; unused ones are H or OH. Bridge positions count the residues as written; N and C are the ends. Square brackets hold non-standard residues; d marks the D form. Peptide text beside a SMILES is read from it. * marks the point of attachment. ξ: configuration not given here. ΔAla(Z-3-ureido) = NC(=O)N/C=C(\N)C(=O)O; X1 = NC1=NCCC(C(N[*:1])C(=O)[*:2])N1; ξβ3hOrn = NCCCC(N)CC(=O)*; Dap = NC[CH](N)C(=O)O
Please answer using one outcome listed in true (1) = active, false (0) = inactive

Recorded results for 2 molecules are shown here.
molecule	classification
NCCCC(N)CC(=O)NCC1NC(=O)C(CO)NC(=O)C(N)CNC(=O)C(C2CCN=C(N)N2)NC(=O)/C(=C/NC(N)=O)NC1=O (stereo not drawn) (H-[Dap]S[Dap](ξβ3hOrn)[ΔAla(Z-3-ureido)][X1]; lactam 1-C; configuration not given here)	false (0)
CC(C)CC(NC(=O)C(COC(C)(C)C)NC(=O)C(Cc1ccc(O)cc1)NC(=O)C(CO)NC(=O)C(Cc1c[nH]c2ccccc12)NC(=O)C(Cc1cnc[nH]1)NC(=O)C1CCC(=O)N1)C(=O)NC(CCCN=C(N)N)C(=O)N1CCCC1C(=O)NNC(N)=O (stereo not drawn)	false (0)

Okay, next one:
Name the outcome recorded for O=C(OCC1OC(OC(=O)c2cc(O)c(O)c(OC(=O)c3cc(O)c(O)c(O)c3)c2)[C@@H](OC(=O)c2cc(O)c(O)c(OC(=O)c3cc(O)c(O)c(O)c3)c2)C(OC(=O)c2cc(O)c(O)c(OC(=O)c3cc(O)c(O)c(O)c3)c2)C1OC(=O)c1cc(O)c(O)c(OC(=O)c2cc(O)c(O)c(O)c2)c1)c1cc(O)c(O)c(OC(=O)c2cc(O)c(O)c(O)c2)c1 (stereo partly drawn) in the assay.
true (1)
